All figures here come from patent US12336991B2.

Target: FXa (Homo sapiens)
Sequence (P00742 235-488 limits assumed): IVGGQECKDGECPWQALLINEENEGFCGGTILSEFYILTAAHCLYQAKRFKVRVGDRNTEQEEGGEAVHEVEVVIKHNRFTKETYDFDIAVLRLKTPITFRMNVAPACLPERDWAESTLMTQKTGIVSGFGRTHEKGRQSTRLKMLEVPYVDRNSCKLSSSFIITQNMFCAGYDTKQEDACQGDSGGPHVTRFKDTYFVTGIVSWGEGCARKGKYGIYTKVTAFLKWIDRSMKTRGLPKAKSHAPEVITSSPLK
Sequence (P00742 41-179 partner limits assumed): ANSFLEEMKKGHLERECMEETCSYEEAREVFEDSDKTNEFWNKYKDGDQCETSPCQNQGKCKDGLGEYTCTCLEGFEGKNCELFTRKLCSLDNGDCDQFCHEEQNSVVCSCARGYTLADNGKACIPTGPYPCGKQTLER
Protocol Text: Determination of selectivity: FXa inhibition, chromogenic substrate S2765 assay
Format: biochemical
Particulars: fold selectivity for FXIIa over FXa
Outcome Measure: FXa (human)/FXIIa alpha (human)

Solved entries (count: 5):
                                   compound  result
0  Cn1nnc2cc(CNC(=O)[C@@H]3C[C@@H](Cc4ccncc4)CN3C(=O)[C@@H](CCC(=O)N3CCCC3)NCC(F)F)ccc21      ∘∘
1  COc1ccc(C[C@@H]2C[C@@H](C(=O)NCc3ccc4c(c3)nnn4C)N(C(=O)[C@H](N)CCC(=O)N3CCCC3(C)C)C2)cc1     ∘∘∘
2  COc1ccc(C[C@@H]2C[C@@H](C(=O)NCc3ccc4c(c3)nnn4C)N(C(=O)[C@H]3CC(c4cccnc4C)CN3)C2)cc1 (stereo partly shown)     ∘∘∘
3  COc1ccc(C[C@@H]2C[C@@H](C(=O)NCc3cc4cnccc4[nH]3)N(C(=O)[C@H]3C[C@@H](C(=O)N4CCCC4(C)C)CCN3)C2)cc1     ∘∘∘
4  COc1ccc(C[C@@H]2C[C@@H](C(=O)NCc3ccc4c(c3)nnn4C)N(C(=O)[C@H]3C[C@@H](c4ccccc4)CN3)C2)cc1     ∘∘∘

Query :: So what does the record say about FXa (human)/FXIIa alpha (human) for Cc1ccc(C[C@@H]2C[C@@H](C(=O)NCc3ccc4c(c3)nnn4C)N(C(=O)[C@H]3C[C@@H](c4ccccc4)CN3)C2)cc1 ?
Result :: ∘∘∘

Query :: So what does the record say about FXa (human)/FXIIa alpha (human) for Cn1nnc2cc(CNC(=O)[C@@H]3C[C@@H](Cc4ccncc4)CN3C(=O)[C@@H](CCC(=O)N3CCCC3)NC(=O)Cc3ccccc3)ccc21 ?
Result :: ∘∘

Query :: So what does the record say about FXa (human)/FXIIa alpha (human) for Cc1ccccc1C[C@@H]1C[C@@H](C(=O)NCc2ccc3c(c2)nnn3C)N(C(=O)[C@H]2C[C@@H](c3ccccc3)CN2)C1 ?
Result :: ∘∘

Query :: So what does the record say about FXa (human)/FXIIa alpha (human) for COc1ccc(C[C@@H]2C[C@@H](C(=O)NCc3ccc4c(c3)nnn4C)N(C(=O)[C@H](N)CCC(=O)N3CCCC3)C2)cc1 ?
Result :: ∘∘∘

Query :: So what does the record say about FXa (human)/FXIIa alpha (human) for Cn1nnc2cc(CNC(=O)[C@@H]3C[C@@H](Cc4ccncc4)CN3C(=O)[C@@H](CCC(=O)N3CCCC3)NS(=O)(=O)c3ccccc3)ccc21 ?
Result :: ∘∘

Query :: So what does the record say about FXa (human)/FXIIa alpha (human) for Nc1cc(CNC(=O)[C@@H]2C[C@@](O)(c3ccccc3)CN2C(=O)[C@H](N)CCc2ccccc2)ccn1 ?
Result :: ∘∘

Query :: So what does the record say about FXa (human)/FXIIa alpha (human) for COc1ccc(C[C@@H]2C[C@@H](C(=O)NCc3ccc4c(c3)nnn4C)N(C(=O)[C@H]3C[C@@H](c4ccccc4)CN3)C2)cc1Cl ?
Result :: ∘∘∘

Query :: So what does the record say about FXa (human)/FXIIa alpha (human) for Cn1nnc2cc(CNC(=O)[C@@H]3C[C@@H](c4ccccc4)CN3C(=O)[C@H](N)CCC(=O)N3CCCC3)ccc21 ?
Result :: ∘∘∘

Query :: So what does the record say about FXa (human)/FXIIa alpha (human) for NCc1ccc(CNC(=O)C2CCCN2C(=O)[C@H](N)CCc2cccc(CO)c2)cc1 (stereo partly shown) ?
Result :: ∘∘

Query :: So what does the record say about FXa (human)/FXIIa alpha (human) for Cn1nccc1C[C@H]1C[C@@H](C(=O)NCc2ccc3c(c2)nnn3C)N(C(=O)[C@H](N)CCC(=O)N2CCCC2)C1 ?
Result :: ∘∘∘

Query :: So what does the record say about FXa (human)/FXIIa alpha (human) for Cn1nnc2cc(CNC(=O)[C@@H]3C[C@@H](c4ccccc4)CN3C(=O)[C@H](N)CCc3ccccc3)ccc21 ?
Result :: ∘∘

Query :: So what does the record say about FXa (human)/FXIIa alpha (human) for NCc1ccc(CNC(=O)[C@@H]2CCCN2C(=O)[C@H](N)CCC(=O)N2CCC3CC32)cc1 (stereo partly shown) ?
Result :: ∘∘
